Biological target: T1, Sortilin SORTECDBAP_hB01-05 (human/tetraodon chimera)
T1 construct: Shuffle construct: chimeric human/tetraodon Sortilin ECD with BAP tag
T1 chain: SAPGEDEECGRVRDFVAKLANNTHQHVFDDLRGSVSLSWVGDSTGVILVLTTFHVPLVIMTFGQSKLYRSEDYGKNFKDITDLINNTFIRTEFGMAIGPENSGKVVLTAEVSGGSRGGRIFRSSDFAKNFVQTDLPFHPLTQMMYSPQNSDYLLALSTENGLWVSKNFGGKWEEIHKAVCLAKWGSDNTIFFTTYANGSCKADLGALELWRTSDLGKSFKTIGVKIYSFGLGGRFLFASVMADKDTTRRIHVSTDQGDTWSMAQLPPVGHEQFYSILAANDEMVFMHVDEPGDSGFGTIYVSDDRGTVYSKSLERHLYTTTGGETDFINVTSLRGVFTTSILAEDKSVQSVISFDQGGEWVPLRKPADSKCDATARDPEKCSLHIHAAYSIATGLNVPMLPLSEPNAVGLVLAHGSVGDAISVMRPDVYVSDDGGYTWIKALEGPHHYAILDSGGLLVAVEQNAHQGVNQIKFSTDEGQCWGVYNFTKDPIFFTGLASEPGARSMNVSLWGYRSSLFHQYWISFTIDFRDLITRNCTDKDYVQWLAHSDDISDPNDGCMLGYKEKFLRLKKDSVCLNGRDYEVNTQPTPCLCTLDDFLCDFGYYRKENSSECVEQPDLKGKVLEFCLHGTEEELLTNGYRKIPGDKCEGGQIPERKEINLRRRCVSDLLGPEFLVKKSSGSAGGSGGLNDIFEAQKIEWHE
Experiment: BLI (Octet384RED)

- Binder: "Antibody 6003-471 (antibody, V domains shown) VH: QVQLVQSGAEVKKPGSSVKVSCKASGGTFSNYAISWVRQAPGQGLEWMGRIIPIFGIANYAQKFQGRVTITADKSTSTAYMELSSLRSEDTAVYYCARDRRGFSGYEVFDYWGQGTLVTVSS VL: DIQMTQSPSSLSASVGDRVTITCRASQGISSWLAWYQQKPEKAPKSLIYATSSLQSGVPSRFSGSGSGTDFTLTISSLQPEDFATYYCQQYNSYPITFGQGTRLEIK"
  binding result: "no binding"
- Binder: "Antibody 6003-028 (antibody, human IgG1, V domains shown) VH: EVQLLESGGGLVQPGGSLRLSCAASGFTFSSYAMSWVRQAPGKGLEWVSTISGRGGSTYYADSVKGRFTISRDNSKNTLYLQMNSLRAEDTAVYYCANLYSNYWYFDLWGRGTLVTVSS VL: EIVLTQSPATLSLSPGERATLSCRASQSVSSFLAWYQQKPGQAPRLLIYDASNRATGIPARFSGSGSGTDFTLTISSLEPEDFAVYYCQQRSNWPLTFGGGTKVEIK"
  binding result: "no binding"
- Binder: "Antibody 6003-083 (antibody, human IgG1, V domains shown) VH: EVQLLESGGGLVQPGGSLRLSCAASGFTFSSYAMSWVRQAPGKGLEWVSTISGRGGSTYYADSVKGRFTISRDNSKNTLYLQMNSLRAEDTAVYYCAIVATMYWYFDLWGRGTLVTVSS VL: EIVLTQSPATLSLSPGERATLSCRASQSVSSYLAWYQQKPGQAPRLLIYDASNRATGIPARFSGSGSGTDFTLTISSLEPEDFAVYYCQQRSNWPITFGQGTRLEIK"
  binding result: "no binding"
